Entries and their TGI values follow.
- System: UACC-257 melanoma
- test_protocol: NCI tumour cell line growth inhibition, 48 h
Hi! Could you send only the number? It should be in µM, unit omitted.

> print(dat)
                                 mol.smiles  quantity.kind  readout.value
1  Cc1ccc(C(=O)N/N=C(\N=Nc2cccc([N+](=O)[O-])c2)c2ccc(N(CCC#N)CCC#N)cc2C)cc1            TGI           52.7

Kindly consider the entry below.
Tell me the measured TGI of C#CCn1c(=O)c(I)cn(/C(=C/C(=O)OCC)C(=O)OCC)c1=O , please.
8.11

---

- System: M14 melanoma
- test_protocol: NCI tumour cell line growth inhibition, 48 h
quantity_kind: TGI

Look over these answered cases.
> print(dat)
                                   compound  tested.target  quantity.kind  readout.value
1  COc1cc(Nc2ncccc2C(=O)Nc2nc3ccc(F)cc3s2)cc(OC)c1OC   M14 melanoma            TGI       > 100 µM
2  COc1cc(C=O)c(-c2c(C=O)ccc3c2OCO3)c(OC)c1OC   M14 melanoma            TGI       > 100 µM
3  CC(=O)OCC1OC(N2C(c3ccccc3)=CC(c3cccs3)C(C#N)=C2S)C(OC(C)=O)C(OC(C)=O)C1OC(C)=O (stereo unspecified)   M14 melanoma            TGI       > 100 µM

// fetch M14 melanoma TGI for C=CC[C@]1(/C=N/O)CN(S(=O)(=O)CC[Si](C)(C)C)C[C@H]2CC=CC[C@H]21
45 µM

Thanks! And C[C@]12CC=CC(=O)[C@@]1(C)CCC(=O)C2 ?
> 100 µM

Try this compound too: Cc1ccc(C)c(NC(=O)CC2Sc3ccccc3NC2=O)c1 (stereo unspecified)
> 100 µM

Then CNC1(c2cc3ccccc3s2)CCCCC1 ?
35.7 µM

Then CN(C)C/C=C/C(=O)Nc1ccc(C(=O)N[C@@]2(C)CCC[C@@H](Nc3ncc(Cl)c(-c4c[nH]c5ccccc45)n3)C2)nc1 ?
0.0282 µM

Queued: O=C(NC(=O)c1c(F)cccc1F)Nc1cccc(Oc2ncc(Cl)cn2)c1
> 100 µM

---

- System: MDA-N
- test_protocol: NCI tumour cell line growth inhibition, 48 h
Item-by-item account of TGI

Solved entries (count: 2):
> print(dat)
                                   molecule  tested.target  readout.value
1  COC1(OC)N=C(N)C2(C#N)C(c3ccccc3)NC3=C(CCC3)C12C#N (stereo not drawn)          MDA-N       > 100 µM
2  Cc1n(CC(C)C)c2c([n+]1C)C(=O)c1ccccc1C2=O          MDA-N       0.314 µM

Now for a further molecule.
Fill blank: measured TGI of the molecule Cc1cccc(Cl)c1NCC(O)CN1CCN(C)CC1 (stereo not drawn) is ____.
> 100 µM

---

# TGI per entry
- Test system: NCI-H226 lung
- test_protocol: NCI tumour cell line growth inhibition, 48 h

Recorded results for 2 compounds are shown here.
> print(dat)
                                   compound  tested.target  quantity.kind  readout.value
1     N#C/C(=C/c1cccc(Oc2ccccc2)c1)c1ccccc1  NCI-H226 lung            TGI       > 100 µM
2  O=C(Nc1cccc(O)c1)C(=O)C1C(=O)NC(=S)NC1=O  NCI-H226 lung            TGI       > 100 µM

Fill in the recorded TGI for this compound, with NCI-H226 lung as test system: C/C(=N\NS(=O)(=O)c1ccc(C)cc1)c1ccccn1
> 100 µM

Try this compound next: O=C(/C=C/c1ccc(O)c(O)c1)OCC(OC(=O)/C=C/c1ccc(O)c(O)c1)C(=O)O (stereo not drawn)
> 100 µM

---

- Test system: LXFL 529 NSCLC
- test_protocol: NCI tumour cell line growth inhibition, 48 h
Listed next: entries and their corresponding TGI.

// worked examples, TGI included
> print(dat)
                                   compound   tested.target  readout.value
1  N#C[S-].[La+3].c1cnc2c(c1)ccc1cccnc12.c1cnc2c(c1)ccc1cccnc12.c1cnc2c(c1)ccc1cccnc12  LXFL 529 NSCLC        15.3 µM
2  CCC1C[N+]23CCc4c([nH]c5ccccc45)C2CC1CC3 (stereo not given)  LXFL 529 NSCLC       > 100 µM
3  O=C(Nc1ccc(C(F)(F)F)cc1[N+](=O)[O-])C(=O)C1NC(=S)NC1=O (stereo not given)  LXFL 529 NSCLC       > 100 µM

Any idea what its TGI is? The compound is Nc1ncnc2c1ncn2C1C=C(CO)C(O)C1O (stereo not given)
> 100 µM

Similarly, COC(=O)C(=O)CC(=O)CCn1[nH]c(=O)c(Cl)c(Cl)c1=O ?
> 100 µM

---

// TGI lookup, one value per entry
- Test system: NCI-H522 lung
- test_protocol: NCI tumour cell line growth inhibition, 48 h

Worked set:
> print(dat)
                                 mol.smiles  readout.value
1  CC(=O)c1ccc(NC(=O)/C(CC(=O)c2sc(-c3cccnc3)nc2C)=N/NC(N)=O)cc1       > 100 µM
2  CC(C)(C)c1cc([N+](=O)[O-])cc([N+](=O)[O-])c1O        > 10 µM
3  CC1(C)OCN(c2ccc(N3CCOCC3)cc2)Cn2c1nc1ccccc12       > 100 µM

Now turn to the next molecule.
Given O=C(CSc1nnc(-c2ccccn2)s1)N/N=C/c1ccccc1 , state its recorded TGI.
> 100 µM

---

# Lookup of reported TGI keyed by entry
- Test system: MDA-MB-435
- test_protocol: NCI tumour cell line growth inhibition, 48 h

Some compounds with known TGI results, for comparison:
compound	TGI
O=C(CSc1nnc(-c2ccccn2)s1)N/N=C/c1ccccc1	> 100 µM
C#CC1(O)C(COP(=O)(O)OCC(COP(=O)(O)OCC2OC(n3cc(F)c(=O)[nH]c3=O)CC2O)OCCCCCCCCCCCCCCCCCC)OC(n2ccc(N)nc2=O)C1O (stereo not given)	> 27.2 µM
OC(CNc1ccccn1)c1ccccc1 (stereo not given)	> 100 µM
CCOC(=O)CCC(NC(=O)c1ccc(Nc2nc3ccc(C(F)(F)F)cc3nc2-c2ccccc2)cc1)C(=O)OCC (stereo not given)	> 100 µM

Please look up its TGI: COc1ccc2c(c1)NC1=C(C(=O)OC1)C2c1cc(OC)c(OC)c(OC)c1 (stereo not given)
< 0.0164 µM

Same thing, different compound: CCOC(=O)C(NC(=O)Nc1ccc(C)cc1)(OCC)C(F)(F)F (stereo not given)
> 100 µM

Could you do the same for Cc1cc(C)nc(NS(=O)(=O)c2ccc(Nc3c4ccccc4nc4ccc(C(=O)Nc5ccc(S(N)(=O)=O)cc5)cc34)cc2)n1 , please?
> 100 µM

Continue with Cc1ccc(C(=O)N/N=C(\N=Nc2cccc([N+](=O)[O-])c2)c2ccc(N(CCC#N)CCC#N)cc2C)cc1
54.3 µM

Another compound to look at: Nc1ccccc1CCN1CCN(CCCc2ccccc2)CC1
> 100 µM

What about CN(C)Cc1cc(C(F)(F)F)ccc1C(O)(c1ccccc1)c1ccccc1 ?
58 µM

// query: CCCCC1(NN=C2CCCCC2)C(=O)N(c2ccccc2)N(c2ccccc2)C1=O
> 100 µM

Try this compound too: N[C@@H]1CCN(c2c(F)cc3c(=O)c(C(=O)O)cn4c3c2Oc2c-4ccc3c2ccc2ccccc23)C1
> 100 µM

Same question, Cc1cc(Cl)ccc1OCC(=O)Nc1nc2c(Cl)cccc2s1 this time
> 100 µM

Entry to check: CS(=O)(=O)CCNCc1coc(-c2ccc3ncnc(Nc4ccc(OCc5ccccc5)cc4)c3c2)c1
8.23 µM

---

Known TGI of a selection of molecules
- Tested on: MOLT-4 leukemia
- test_protocol: NCI tumour cell line growth inhibition, 48 h

> print(dat)
                                   molecule  readout.value
1  Cc1ccc(C)c(NC(=O)CC2Sc3ccccc3NC2=O)c1 (stereo not drawn)       > 100 µM
2  CC1(c2cccc(C3CC4(CCC3=O)OCCCCO4)c2)OCCO1 (stereo not drawn)       > 100 µM

Please find the next molecule below.
Entry under review: O=C(/C=C/c1ccc(O)c(O)c1)OCC(OC(=O)/C=C/c1ccc(O)c(O)c1)C(=O)O (stereo not drawn) . Reported TGI?
> 100 µM

---

Below: a set of entries, each annotated with reported TGI.
- System: NCI-H23 lung
- test_protocol: NCI tumour cell line growth inhibition, 48 h

> print(dat)
                                   molecule  quantity.kind  readout.value
1        C[C@]12CC=CC(=O)[C@@]1(C)CCC(=O)C2            TGI       > 100 µM
2         O=C1COc2cc(NC(=S)Nc3ccccc3)ccc2N1            TGI       > 100 µM
3  Cc1nnc(-c2ccc(C)c(-c3ccc(C(=O)Nc4cccc(C#N)c4)cc3)c2)o1            TGI        > 25 µM
4  Cc1cc(C)c2c(=O)cc(-c3cccc4ccccc34)[nH]c2n1            TGI      > 61.6 µM
5  [N-]=[N+]=NCCCn1c2c(c3ccc([N+](=O)[O-])cc3c1=O)C(=O)c1ccccc1-2            TGI       > 100 µM
6       N/N=C\c1c2ccccc2c(=O)n2c1oc1ccccc12            TGI        29.9 µM
7      CN(C)CCOc1ccc([N+](=O)[O-])c2cccnc12            TGI       > 100 µM
8  CC[C@@H](C)[C@H](NC(=O)[C@H](Cc1ccccc1)NCC(F)(F)F)C(=O)OC(C)(C)C            TGI       > 100 µM

Name the reported TGI value associated with the molecule CCOC1C(Br)Cn2c(=O)c3cc4ccccc4cc3c(=O)n2C1C (stereo not drawn)
> 100 µM

Let us now turn to C=CC[C@]1(/C=N/O)CN(S(=O)(=O)CC[Si](C)(C)C)C[C@H]2CC=CC[C@H]21
> 100 µM
